Where do the numbers come from? From patent US20230056336A1.

# testedOn: T1, basiliximab fab
# T1 construct: The assay used a Fab of basiliximab; Chimeric antibody: human IgG1 constant, mouse variable domains
# experimentSummary: BLI; CD25-Fc on anti-hFc biosensor, basiliximab Fab in solution; global 1:1 fit;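 further: biolayer interferometry signals normalized against a reference probe and smoothed with a Savitzky-Golay filter before the global fit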
readoutLabel: Kd (nM)

binder="CD25 L42F mutant (CD25-Fc) (Fc fusion, not shown: Fc part of CD25-Fc) ELCDDDPPEIPHATFKAMAYKEGTMLNCECKRGFRRIKSGSFYMLCTGNSSHSSWDNQCQCTSSATRNTTKQVTPQPEEQKERKTTEMQSPMQPVDQASLPGHCREPPPWENEATERIYHFVVGQMVYYQCVQGYRALHRGPAESVCKMTHGKTRWTQPQLICTGEMETSQFPGEEKPQASPEGRPESETSCLVTTTDFQIQTEMAATMETSIFTTEYQ" readoutlabel=Kd endpointvalue=7.65
binder="CD25 T47N mutant (CD25-Fc) (Fc fusion, not shown: Fc part of CD25-Fc) ELCDDDPPEIPHATFKAMAYKEGTMLNCECKRGFRRIKSGSLYMLCNGNSSHSSWDNQCQCTSSATRNTTKQVTPQPEEQKERKTTEMQSPMQPVDQASLPGHCREPPPWENEATERIYHFVVGQMVYYQCVQGYRALHRGPAESVCKMTHGKTRWTQPQLICTGEMETSQFPGEEKPQASPEGRPESETSCLVTTTDFQIQTEMAATMETSIFTTEYQ" readoutlabel=Kd endpointvalue=12.8
binder="CD25 L42A mutant (CD25-Fc) (Fc fusion, not shown: Fc part of CD25-Fc) ELCDDDPPEIPHATFKAMAYKEGTMLNCECKRGFRRIKSGSAYMLCTGNSSHSSWDNQCQCTSSATRNTTKQVTPQPEEQKERKTTEMQSPMQPVDQASLPGHCREPPPWENEATERIYHFVVGQMVYYQCVQGYRALHRGPAESVCKMTHGKTRWTQPQLICTGEMETSQFPGEEKPQASPEGRPESETSCLVTTTDFQIQTEMAATMETSIFTTEYQ" readoutlabel=Kd endpointvalue=0.242
